METHOD_SUMMARY: in vitro
APPLIED_CONDITIONS: human, hela cells, % viability
Listed here are molecules together with their documented viability at 28.5 h, 10 µM.
Write the answer as a number in %, unit excluded.

MOLECULE: CC(C)(C)c1ccc(NC(=O)N(Cc2ccccc2C(F)(F)F)CC2CCNCC2)cc1
viability at 28.5 h, 10 µM / %: 86.7
//
MOLECULE: CC(C)Nc1nc(Cl)nc(Nc2ccc(I)cc2)n1
viability at 28.5 h, 10 µM / %: 97.6

// query viability at 28.5 h, 10 µM value for entry Cc1cc(CN2CC3CCCN3C[C@@H]2C)c(C)n1-c1ccccn1 (stereo partly drawn) 87

// query viability at 28.5 h, 10 µM value for entry `Cc1ccc(C(=O)NC2CCCCCC2)cc1C` 86

Provenance of the data: paper PMC12040169
